# subjectOfTest: Cytochrome P450 3A4 (Homo sapiens) (UniProt P08684)
# Sequence (P08684 whole entry, looked up): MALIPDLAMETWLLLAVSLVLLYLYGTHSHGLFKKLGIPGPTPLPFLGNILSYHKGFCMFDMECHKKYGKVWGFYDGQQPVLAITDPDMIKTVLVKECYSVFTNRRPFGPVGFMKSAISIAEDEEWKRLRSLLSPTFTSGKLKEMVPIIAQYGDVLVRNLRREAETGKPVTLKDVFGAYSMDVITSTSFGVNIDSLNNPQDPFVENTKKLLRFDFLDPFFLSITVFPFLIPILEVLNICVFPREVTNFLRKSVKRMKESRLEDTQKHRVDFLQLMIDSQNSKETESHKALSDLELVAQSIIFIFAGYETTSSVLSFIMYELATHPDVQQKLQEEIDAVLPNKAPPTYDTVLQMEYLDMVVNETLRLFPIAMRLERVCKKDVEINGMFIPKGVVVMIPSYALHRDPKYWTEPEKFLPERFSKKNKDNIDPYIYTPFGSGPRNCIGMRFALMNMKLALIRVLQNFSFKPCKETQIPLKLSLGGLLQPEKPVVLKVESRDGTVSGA
# procedureText: qHTS Assay for Inhibitors and Substrates of Cytochrome P450 3A4 (AID 884); note: nearly all actives have a fitted effect of over 50% in size
# assayConditions: recombinant CYP3A4, Luciferin-PPXE luminescence; series mostly up to 57.1 µM
# Method: NIH Molecular Libraries Screening Centers Network [MLSCN] NIH Chemical Genomics Center [NCGC] The P450 gene superfamily is involved in the metabolism and clearance of xenobiotics. […] The luciferin is then measured by luminescence after the addition of a luciferase detection reagent. […] Inhibitors and some substrates limit the production of luciferin, and decrease measured luminescence. […]
Inconclusive results are not listed. Activity calls are given as the source filed them. Calls come from the whole dose curve; as a rule, active = well fitted inhibition curve with a large enough effect; inconclusive = small, poorly fitted or top-dose-only effect; inactive = no such curve, though single readings can be large or run the other way.
Possible outcomes: active, inactive

[[record]]
molecule = "Cc1cccc(CNc2ncncc2-c2ccccc2C)c1"
class = "active"

[[record]]
molecule = "Cc1ccccc1-c1ccc2ncnc(-n3ccnc3)c2c1"
class = "active"

[[record]]
molecule = "Cc1cccc([N+](=O)[O-])c1C"
class = "inactive"

[[record]]
molecule = "COc1ccc2[nH]cc(CCNc3ncnc4ccc(-c5ccoc5)cc34)c2c1"
class = "active"

[[record]]
molecule = "ClCCCl"
class = "inactive"

[[record]]
molecule = "FC(F)(F)c1ccccc1-c1nc(NCc2cccnc2)c2ccccc2n1"
class = "active"

[[record]]
molecule = "Cc1ccc([N+](=O)[O-])c(C)c1"
class = "inactive"

[[record]]
molecule = "COc1ccc2c(c1)OCC(Cc1ccc(OC)c(OC)c1)C2=O (stereo not drawn)"
class = "active"

[[record]]
molecule = "CCC(O)OC(O)CC (stereo not drawn)"
class = "inactive"

[[record]]
molecule = "O=C(O)CC(C(=O)O)C(CC(=O)O)C(=O)O (stereo not drawn)"
class = "inactive"

[[record]]
molecule = "COc1ccc(-c2nc3cnc(N4CCN(C)CC4)nc3n(CCc3ccccc3)c2=O)cc1"
class = "inactive"

[[record]]
molecule = "O=c1ccc2cc3ccoc3cc2o1"
class = "active"

[[record]]
molecule = "CN(Cc1ccco1)c1cc(-c2ccc3c(c2)OCO3)ncn1"
class = "active"


====

# subjectOfTest: Nuclear receptor subfamily 1 group I member 2 (Homo sapiens)
# procedureText: Dual reporter qHTS for agonist of Pregnane X Receptor (hPXR) against the NCATS DSHEA and TCM libraries: Luminescence readout (AID 1920059)
# assayConditions: hPXR dual reporter cells, luciferase luminescence agonist; series mostly up to 40 µM
Results filed as inconclusive are left out. Active and inactive are the calls of the source. The call rests on the fitted dose curve; in most records, active means well fitted activation curve with a large enough effect; inconclusive means small, poorly fitted or top-dose-only effect; inactive means flat fitted curve, though single readings scatter.
observedProperty: outcome

[[record]]
compound = "O=c1c(O[C@@H]2O[C@H](CO)[C@H](O)[C@H](O)[C@H]2O)c(-c2ccc(O)c(O)c2)oc2cc(O)cc(O)c12"
observedproperty = "outcome"
readoutvalue = "inactive"

[[record]]
compound = "C=C(C)C1CC=C(C)C(O)C1 (stereo unspecified)"
observedproperty = "outcome"
readoutvalue = "inactive"

[[record]]
compound = "CCCCCC(=O)O"
observedproperty = "outcome"
readoutvalue = "inactive"

[[record]]
compound = "C=CCc1ccc(OC)c(OC)c1"
observedproperty = "outcome"
readoutvalue = "inactive"

[[record]]
compound = "CCCCCCCCCCCCCC(=O)OCC(O)CO (stereo unspecified)"
observedproperty = "outcome"
readoutvalue = "inactive"

[[record]]
compound = "CC1(C)CC[C@]2(C(=O)O)CC[C@]3(C)C(=CCC4[C@@]5(C)CC[C@H](O)[C@@](C)(CO)C5CC[C@]43C)[C@H]2C1 (stereo partly specified)"
observedproperty = "outcome"
readoutvalue = "inactive"

[[record]]
compound = "CC(C)(O)[C@@H]1CC[C@](C)([C@H]2[C@@H](O)C[C@@]3(C)[C@@H]4C[C@H](O)[C@H]5C(C)(C)[C@@H](O[C@@H]6OC[C@@H](O)[C@H](O)[C@H]6O[C@@H]6O[C@H](CO)[C@@H](O)[C@H](O)[C@H]6O)CC[C@@]56C[C@@]46CC[C@]23C)O1"
observedproperty = "outcome"
readoutvalue = "inactive"

[[record]]
compound = "Cc1ncc(COP(=O)(O)O)c(C)c1O"
observedproperty = "outcome"
readoutvalue = "inactive"

[[record]]
compound = "O=Cc1ccccc1O"
observedproperty = "outcome"
readoutvalue = "inactive"

[[record]]
compound = "CCCCCC/C=C\\CCCCCCCC(=O)O"
observedproperty = "outcome"
readoutvalue = "inactive"

[[record]]
compound = "O=C(O[C@@H]1Cc2c(O)cc(O)cc2O[C@@H]1c1ccc(O)c(O)c1)c1cc(O)c(O)c(O)c1"
observedproperty = "outcome"
readoutvalue = "inactive"

[[record]]
compound = "O=C(OC[C@H]1O[C@@H](OC(=O)c2cc(O)c(O)c(O)c2)[C@H](OC(=O)c2cc(O)c(O)c(O)c2)[C@@H](OC(=O)c2cc(O)c(O)c(O)c2)[C@@H]1O)c1cc(O)c(O)c(O)c1"
observedproperty = "outcome"
readoutvalue = "inactive"

[[record]]
compound = "CC(C)=CCCC(C)=CCCC(C)=CCCC=C(C)CCC=C(C)CCC=C(C)C"
observedproperty = "outcome"
readoutvalue = "inactive"

[[record]]
compound = "CCCCCC/C=C/CCCCCCCCCC(=O)O"
observedproperty = "outcome"
readoutvalue = "inactive"

[[record]]
compound = "C[C@@H]1O[C@@H](OC[C@H]2OC(Oc3c(-c4ccc(O)c(O)c4)oc4cc(O)cc(O)c4c3=O)[C@H](O)[C@@H](O)[C@@H]2O)[C@H](O)[C@H](O)[C@H]1O (stereo partly specified)"
observedproperty = "outcome"
readoutvalue = "inactive"

[[record]]
compound = "C=CC(C)(CCC=C(C)C)OC(C)=O (stereo unspecified)"
observedproperty = "outcome"
readoutvalue = "inactive"

[[record]]
compound = "COc1ccc(-c2coc3cc(O[C@@H]4O[C@H](CO)[C@@H](O)[C@H](O)[C@H]4O)ccc3c2=O)cc1"
observedproperty = "outcome"
readoutvalue = "inactive"

[[record]]
compound = "CC1=C2[C@H](/C=C(\\C)C(=O)O)CC[C@@H](C)[C@H]2CC1"
observedproperty = "outcome"
readoutvalue = "inactive"

[[record]]
compound = "COc1ccccc1/C=C/C=O"
observedproperty = "outcome"
readoutvalue = "inactive"

[[record]]
compound = "CC1=CCC(=C(C)C)CC1"
observedproperty = "outcome"
readoutvalue = "inactive"

[[record]]
compound = "CCCCCCCC/C=C/CCCCCCCC(=O)O"
observedproperty = "outcome"
readoutvalue = "inactive"

